Where do these numbers come from? They come from ChEMBL document CHEMBL2434866.

- System: Pseudomonas aeruginosa
- TEST: Antibacterial activity against Pseudomonas aeruginosa ATCC 27853 assessed as growth inhibition after 18 to 24 hrs by microdilution assay
- Type: functional
For each of the compounds below, state its MIC.
# unit: µg/mL | format: bare number

Q) // MIC lookup, key: `CCCCCCCCCCCCCn1c(-c2cc[n+](CCCCCCCCCCCCC)cc2)cc(=O)c2ccccc21.[Br-]`
A) 250

Q) Cool, now `CCCCCCCCCn1c(-c2cc[n+](CCCCCCCCC)cc2)cc(=O)c2ccccc21.[Br-]`
A) 62.5

Q) Cool, now `CCCCCCCCCCCCCCn1c(-c2cc[n+](CCCCCCCCCCCCCC)cc2)cc(=O)c2ccccc21.[Br-]`
A) 500

Q) Cool, now `CCCCCCCCCCCCCCCn1c(-c2cc[n+](CCCCCCCCCCCCCCC)cc2)cc(=O)c2ccccc21.[Br-]`
A) 500

Q) Cool, now `CCCCCCCCCCn1c(-c2cc[n+](CCCCCCCCCC)cc2)cc(=O)c2ccccc21.[Br-]`
A) 31.2

Q) Cool, now `CCCCCCCCn1c(-c2cc[n+](CCCCCCCC)cc2)cc(=O)c2ccccc21.[Br-]`
A) 31.2

Q) Cool, now `CCCCCCCn1c(-c2cc[n+](CCCCCCC)cc2)cc(=O)c2ccccc21.[Br-]`
A) 62.5

Q) Cool, now `CCCCCCn1c(-c2cc[n+](CCCCCC)cc2)cc(=O)c2ccccc21.[Br-]`
A) 7.8

Q) Cool, now `CCCCCCCCCCCn1c(-c2cc[n+](CCCCCCCCCCC)cc2)cc(=O)c2ccccc21.[Br-]`
A) 62.5

Q) Cool, now `CCCCCCCCCCCCn1c(-c2cc[n+](CCCCCCCCCCCC)cc2)cc(=O)c2ccccc21.[Br-]`
A) 125

Q) Cool, now `CCCCCn1c(-c2cc[n+](CCCCC)cc2)cc(=O)c2ccccc21.[Br-]`
A) 15.6

----------
- System: Bacillus spizizenii
- TEST: Antibacterial activity against Bacillus subtilis ATCC 6633 assessed as growth inhibition after 18 to 24 hrs by microdilution assay
- Format: functional
Hi! Just check whether MIC is below 100 µg/mL. Below gives yes (1), equal or above gives no (0).

Q) Lab note: MIC threshold 100 µg/mL. Does this molecule come in strictly under it? `CCCCCCCCCCCCCCn1c(-c2cc[n+](CCCCCCCCCCCCCC)cc2)cc(=O)c2ccccc21.[Br-]`
A) no (0)

Q) Cool, now `CCCCCCCCn1c(-c2cc[n+](CCCCCCCC)cc2)cc(=O)c2ccccc21.[Br-]`
A) yes (1)

Q) Cool, now `CCCCCCn1c(-c2cc[n+](CCCCCC)cc2)cc(=O)c2ccccc21.[Br-]`
A) yes (1)

Q) Cool, now `CCCCCCCCCCCCn1c(-c2cc[n+](CCCCCCCCCCCC)cc2)cc(=O)c2ccccc21.[Br-]`
A) no (0)

Q) Cool, now `CCCCCCCCCn1c(-c2cc[n+](CCCCCCCCC)cc2)cc(=O)c2ccccc21.[Br-]`
A) yes (1)

Q) Cool, now `CCCCCCCCCCCn1c(-c2cc[n+](CCCCCCCCCCC)cc2)cc(=O)c2ccccc21.[Br-]`
A) no (0)

----------
For each of the molecules below, state its MIC.
- System: Klebsiella pneumoniae
- TEST: Antibacterial activity against Klebsiella pneumoniae ATCC 13883 assessed as growth inhibition after 18 to 24 hrs by microdilution assay
- Type: functional
# unit: µg/mL | format: bare number

Q) // MIC lookup, key: `CCCCCCn1c(-c2cc[n+](CCCCCC)cc2)cc(=O)c2ccccc21.[Br-]`
A) 15.6

Q) Cool, now `CCCCCCCCCCCn1c(-c2cc[n+](CCCCCCCCCCC)cc2)cc(=O)c2ccccc21.[Br-]`
A) 125

Q) Cool, now `CCCCCn1c(-c2cc[n+](CCCCC)cc2)cc(=O)c2ccccc21.[Br-]`
A) 31.2
